These entries and their values trace back to patent US20240252488A1.

- study system: MLKL (Homo sapiens, UniProt Q8NB16)
- Sequence (Q8NB16 whole entry): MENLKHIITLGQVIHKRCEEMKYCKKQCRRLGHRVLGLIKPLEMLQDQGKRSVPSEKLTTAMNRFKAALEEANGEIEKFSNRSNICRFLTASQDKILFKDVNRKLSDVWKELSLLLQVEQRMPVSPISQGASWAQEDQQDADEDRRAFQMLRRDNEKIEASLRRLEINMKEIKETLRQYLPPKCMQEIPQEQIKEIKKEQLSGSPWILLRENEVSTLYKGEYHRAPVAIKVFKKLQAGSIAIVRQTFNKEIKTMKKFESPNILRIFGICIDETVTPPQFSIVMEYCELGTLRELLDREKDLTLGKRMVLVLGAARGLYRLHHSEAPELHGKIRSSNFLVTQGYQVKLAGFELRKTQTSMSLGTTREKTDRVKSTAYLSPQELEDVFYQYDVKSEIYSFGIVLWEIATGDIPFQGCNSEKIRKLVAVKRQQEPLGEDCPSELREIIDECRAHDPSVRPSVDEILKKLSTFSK
- assay protocol: MLKL degradation assay in HepG2 cell line (western blot)
- Assay type: cell-based
- Design: endogenous in cells; host or cells: HepG2 or HaCaT
- measurement conditions: compound 1 μM; cell line not given
test readout: Degradation assay (Degradation %) 1 μM

a. COc1ccc(C(=O)N2CCC(C(=O)N3CCC(CCN4CCC(CN5CCC(n6cc(-c7cnc(N)c(C(=O)O[C@@H](C(=O)Nc8ccc(F)cc8)c8ccccc8)n7)cn6)CC5)CC4)CC3)CC2)cc1N1CCC(=O)NC1=O [TDH-502]
b. Nc1ncc(-c2cnn(C3CCN(CC4CCN(CC(=O)NC5CCN(c6cccc7c6C(=O)N(C6CCC(=O)NC6=O)C7=O)CC5)CC4)CC3)c2)nc1C(=O)OC(C(=O)Nc1ccc(F)cc1)c1ccccc1 (centres unmarked) [TDH-236]
c. Nc1ncc(-c2cnn(C3CCN(C(=O)COCCOCCNC(=O)COc4cccc5c4C(=O)N(C4CCC(=O)NC4=O)C5=O)CC3)c2)nc1C(=O)O[C@@H](C(=O)Nc1ccc(F)cc1)c1ccccc1 (some centres unmarked) [TDH-188]
INPUT: Arrange the items listed above so that Degradation assay (Degradation %) 1 μM rises from first to last. Answer with the labels in sequence, matching the requested order.
OUTPUT: c, b, a
(c: 7.04%, b: 32.16%, a: 85.39%)
